# procedure.summary: qHTS for Inhibitors of ATXN expression: Validation (AID 588378); also: nearly all actives have a fitted effect of over 75% in size
# condition.context: cell-based ATXN2 expression reporter assay, luminescence; series mostly up to 57.1 µM
Records with an inconclusive call do not appear. Activity calls are given as the source filed them. Calls follow the shape of the dose curve; as a rule, active = well fitted inhibition curve with a large enough effect; inconclusive = small, poorly fitted or top-dose-only effect; inactive = no such curve, though single readings can be large or run the other way.
value.type: outcome

Answered examples (7):
[Li+] ... inactive
O=C(O)c1ccccc1Nc1cccc(OCc2ccc3ccccc3n2)c1 ... inactive
O=C(O)C1CCNCC1 ... inactive
N[C@@H](CS(=O)O)C(=O)O ... inactive
c1ccc2c(c1)CC(N1CCN(c3cccc4c3OCCO4)CC1)C2 ... inactive
O=C(O)Cc1ccc(O)c(O)c1 ... inactive
CC(N)(C(=O)O)c1ccc(C(=O)O)cc1 (stereo not drawn) ... inactive

Which outcome value is on record for C[C@H]1CC2C3CCC4=CC(=O)C=C[C@]4(C)[C@@]3(Cl)[C@@H](O)C[C@]2(C)[C@@]1(O)C(=O)CO (stereo partly drawn) ?
inactive
